Assay: Single-dose pharmacokinetics, dog
Assay type: in vivo
Conditions: Beagle, serum, iv, 10 mg/kg
quantity_measured: half-life (h)
Numeric answer only, unit h assumed.

Please report the recorded half-life for CCCN1CC(Oc2ccc([C@@H]3c4[nH]c5ccccc5c4C[C@@H](C)N3CC(C)(C)F)cc2)C1 .
63

* * *

Experiment: Single-dose pharmacokinetics, rat
Format: in vivo
Conditions: Sprague-Dawley, serum, po, 5 mg/kg
quantity_measured: half-life (h)
Dear colleague, please return just the value in h, with no unit written.

Return reported half-life; argument: CCCN1CC(Oc2ccc([C@@H]3c4[nH]c5ccccc5c4C[C@@H](C)N3CC(C)(C)F)cc2)C1 [compound 21]
16
